# target.or.system: BCDIN3D (Homo sapiens, UniProt Q7Z5W3)
# assay.summary: BCDIN3D InCellPulse thermal stability assay in transfected A549 cells
# Format: cell-based
# experimental.setup: transiently transfected A549 cells, heat shock 58° C. 15 min
# Description: BCDIN3D InCellPulse™ Assay The thermal stability assay was performed with lipofectamine 3000 transiently transfected A549 using the plasmid pICP-ePL-BCDIN3 Da. This plasmid encodes for BCDIN3D N-terminally fused to a Prolabel (ePL), complementing a split β-Galactosidase Enzyme System InCELL Pulse Technology (InCELL Hunter Detection Kit, DiscoverX/Eurofins, cat: 96-0079L). […] Finally, the luminescence was measured with a Perkin Elmer EnVision with 0.2 s measurement time in luminescence mode.
property.name: IC50 (nM)

- molecule: "Cn1ncc2c(NC34CC(C#N)(C3)C4)nc(NCC(N)c3ccccc3)nc21 (centres unmarked) [Compound 4.64]"
  IC50 (nM): 949

A. Cn1ncc2c(Nc3ccccc3)nc(NCC3(N)CCCC3)nc21 [Compound 3.21]
B. Cn1ncc2c(Nc3ccc(C(F)(F)F)cc3)nc(NCC(N)c3ccccc3Cl)nc21 (centres unmarked) [Compound 5.09]
C. COC[C@@H](C)Nc1nc(NC[C@H](N)c2ccccc2)nc2c1cnn2C [Compound 4.117]
D. Cn1ncc2c(Nc3cccnc3)nc(NCC3(N)CC3)nc21 [Compound 2.10]
E. Cn1ncc2c(NCc3ccc(F)cc3F)nc(NCC3(N)CC3)nc21 [Compound 2.26]
Place the items in sequence of falling IC50. Ranked list of labels, please, in the requested order. D, E, A, C, B
(D: 15700 nM, E: 4650 nM, A: 2000 nM, C: 608 nM, B: 55.9 nM)

----------
# target.or.system: BCDIN3D (Homo sapiens)
# assay.summary: BCDIN3D IC50 RFMS (RapidFire) assay with mini-helix
# Type: biochemical
# experimental.setup: mini-helix 0.2 μM and SAM 6 μM as substrates, 25 nM enzyme, 1 hr at 37° C.
property.name: IC50 (nM)

Solved entries (count: 3):
- compound: "Cn1ncc2c(NCc3ccc(-c4ccccc4)cc3)nc(NCC(C)(C)N)nc21 [Compound 1.28]"
  unit.name: "nM"
  IC50: 1110
- compound: "COc1ccc(CNc2nc(NCCN)nc3c2cnn3C)c(OC)c1 [Compound 1.24]"
  unit.name: "nM"
  IC50: 2250
- compound: "Cn1ncc2c(NCC(F)(F)F)nc(NC[C@@H](N)c3ccccc3)nc21 [Compound 7.07]"
  unit.name: "nM"
  IC50: 5620

A. Cc1ccc(CNc2nc(NC3CCCCC3N)nc3c2cnn3C)cc1Cl (centres unmarked) [Compound 1.34]
B. COc1ccc(CNc2nc(NCC(C)(C)N)nc3c2c(C)nn3C)cc1Cl [Compound 1.30]
C. Cn1ncc2c(Nc3ccc(C(F)(F)F)cc3)nc(NCC3(N)CCCCC3)nc21 [Compound 1.32]
Place the items in sequence of falling IC50. Ranked list of labels, please, in the requested order. B, A, C
(B: 1850 nM, A: 1140 nM, C: 77.9 nM)

a. Cn1ncc2c(NCc3ccc(F)c(Cl)c3)nc(NCCN)nc21 [Compound 1.17]
b. Cn1ncc2c(OC(C)(C)C)nc(NCC(N)c3ccccc3)nc21 (centres unmarked) [Compound 6.05]
// compare measured IC50, left a , right b , return larger State your choice using its label. a

----------
# target.or.system: BCDIN3D (Homo sapiens, UniProt Q7Z5W3)
# Sequence (Q7Z5W3 1-292): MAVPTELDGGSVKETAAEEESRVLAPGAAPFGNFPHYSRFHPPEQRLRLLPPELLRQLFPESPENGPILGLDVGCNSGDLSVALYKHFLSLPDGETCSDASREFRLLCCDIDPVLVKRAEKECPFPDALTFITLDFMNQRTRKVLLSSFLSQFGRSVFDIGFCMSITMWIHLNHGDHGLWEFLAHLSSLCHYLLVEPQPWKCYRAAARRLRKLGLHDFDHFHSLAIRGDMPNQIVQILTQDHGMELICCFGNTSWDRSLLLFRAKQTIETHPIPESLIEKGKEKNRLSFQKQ
# assay.summary: BCDIN3D InCellPulse thermal stability assay in transfected A549 cells
# Type: cell-based
# experimental.setup: transiently transfected A549 cells, heat shock 58° C. 15 min
# Method: BCDIN3D InCellPulse™ Assay The thermal stability assay was performed with lipofectamine 3000 transiently transfected A549 using the plasmid pICP-ePL-BCDIN3 Da. This plasmid encodes for BCDIN3D N-terminally fused to a Prolabel (ePL), complementing a split β-Galactosidase Enzyme System InCELL Pulse Technology (InCELL Hunter Detection Kit, DiscoverX/Eurofins, cat: 96-0079L). […] Finally, the luminescence was measured with a Perkin Elmer EnVision with 0.2 s measurement time in luminescence mode.
pIC50: −log10 of the molar value.
property.name: pIC50

Solved entries (count: 2):
- compound: "Cn1ncc2c(Nc3ccc(F)cc3F)nc(NCC3(N)CC3)nc21 [Compound 2.05]"
  property.name: "pIC50"
  value.observed: 5.30
- compound: "Cn1ncc2c(Nc3ccc(C#N)cc3)nc(NCC3(N)CC3)nc21 [Compound 2.31]"
  property.name: "pIC50"
  value.observed: 5.08

1. Cn1ncc2c(Nc3ccc(C(F)(F)F)cc3)nc(NCC3(N)CCOC3)nc21 (stereo not shown) [Compound 3.14]
2. Cn1ncc2c(NC3CC34CC4)nc(NC[C@H](N)c3ccccc3)nc21 (stereo partly shown) [Compound 4.80]
Hey, between 1 and 2 which has a smaller measured pIC50? State your choice using its label. 1

----------
# target.or.system: BCDIN3D (Homo sapiens)
# assay.summary: BCDIN3D InCellPulse thermal stability assay in transfected A549 cells
# Assay type: cell-based
# experimental.setup: transiently transfected A549 cells, heat shock 58° C. 15 min
property.name: IC50 (nM)

Solved entries (count: 5):
- compound: "Cn1ncc2c(NC(C)(C)CO)nc(NC[C@H](N)c3ccccc3)nc21 [Compound 4.71]"
  target.or.system: "BCDIN3D (Homo sapiens)"
  property.name: "IC50"
  value.observed: 1200
- compound: "Cn1ncc2c(NC(C)(C)C)nc(NCC(N)c3cccc(C4CC4)c3)nc21 (centres unmarked) [Compound 5.32]"
  target.or.system: "BCDIN3D (Homo sapiens)"
  property.name: "IC50"
  value.observed: 120
- compound: "Cn1ncc2c(NC(C)(C)C(F)(F)F)nc(NC[C@H](N)c3cccc(Br)c3)nc21 [Compound 5.16]"
  target.or.system: "BCDIN3D (Homo sapiens)"
  property.name: "IC50"
  value.observed: 38.5
- compound: "Cn1ncc2c(NC3(C)CCOCC3)nc(NC[C@H](N)c3ccccc3)nc21 [Compound 4.127]"
  target.or.system: "BCDIN3D (Homo sapiens)"
  property.name: "IC50"
  value.observed: 2240
- compound: "Cc1ccc(CNc2nc(NCC(N)CF)nc3c2cnn3C)cc1Cl (centres unmarked) [Compound 3.25]"
  target.or.system: "BCDIN3D (Homo sapiens)"
  property.name: "IC50"
  value.observed: 5500

1. Cn1ncc2c(NCc3ccc(C(F)(F)F)nc3)nc(NCC(N)c3ccccc3)nc21 (centres unmarked) [Compound 4.08]
2. Cn1ncc2c(Nc3ccc(OC(F)F)cc3)nc(NC[C@H](N)c3ccccc3)nc21 [Compound 4.16]
3. CC(C)Nc1nc(NCC(N)c2ccc(Br)cc2)nc2c1cnn2C (centres unmarked) [Compound 5.19]
Place the items in sequence of falling IC50. Ranked list of labels, please, in the requested order. 1, 3, 2

----------
# target.or.system: BCDIN3D (Homo sapiens)
# assay.summary: BCDIN3D IC50 RFMS (RapidFire) assay with mini-helix
# Assay type: biochemical
# experimental.setup: mini-helix substrate 0.2 μM, SAM 6 μM, 25 nM enzyme
pIC50: −log10 of the molar value.
property.name: pIC50

- compound: "Cn1ncc2c(Nc3ccccc3)nc(NCC3(N)COC3)nc21 [Compound 3.29]"
  pIC50: 5.31

P. CC(C)Cc1nc(NCC(N)c2ccccc2)nc2c1cnn2C (centres unmarked) [Compound 4.130]
Q. Cn1ncc2c(Nc3ccc(OC(F)F)nc3)nc(NCC(N)c3ccccc3)nc21 (centres unmarked) [Compound 4.28]
R. [2H]C([2H])([2H])n1ncc2c(Nc3ccc(C(F)(F)F)nc3)nc(NCC3(N)CC3)nc21 [Compound 2.50]
S. COCC(C)(C)Nc1nc(NC[C@H](N)c2ccccc2)nc2c1cnn2C [Compound 4.100]
Place the items in sequence of falling pIC50. Ranked list of labels, please, in the requested order. Q, R, S, P

----------
# target.or.system: UniProtKB Q7Z5W3
# assay.summary: BCDIN3D InCellPulse thermal stability assay in transfected A549 cells
# Type: cell-based
# experimental.setup: transiently transfected A549 cells, heat shock 58° C. 15 min
property.name: IC50 (µM)

Solved entries (count: 5):
- compound: "Cn1ncc2c(NCc3ccc(Br)cc3)nc(NCC(N)c3ccccc3)nc21 (centres unmarked)"
  IC50 / µM: 0.282
- compound: "Cn1ncc2c(Nc3ccc(OC(F)F)cc3)nc(NCC3(N)CCCC3)nc21"
  IC50 / µM: 0.724
- compound: "CCN(C)c1nc(NCC(N)c2ccccc2)nc2c1cnn2C (centres unmarked)"
  IC50 / µM: 7.57
- compound: "[2H]C([2H])([2H])n1ncc2c(Nc3ccc(C(F)(F)F)cc3)nc(NCC(C)(N)c3ccccc3)nc21 (centres unmarked)"
  IC50 / µM: 0.218
- compound: "Cn1ncc2c(NC(C)(C)C)nc(NCC(N)c3ccccc3Br)nc21 (centres unmarked)"
  IC50 / µM: 1.12

A. COc1ccc(Nc2nc(NCC3(N)CC3)nc3c2cnn3C)cc1
B. Cc1nn(C)c2nc(NCC(N)c3ccccc3)nc(Nc3ccc(C(F)(F)F)cc3)c12 (centres unmarked)
// compare measured IC50, left A , right B , return larger State your choice using its label. A
(A: 3.86 µM, B: 0.27 µM)

P. C#CCCC1(CCOc2ccc(CNc3nc(NCC4(N)CC4)nc4c3cnn4C)cc2Cl)N=N1
Q. CC1CC(Nc2nc(NC[C@H](N)c3ccccc3)nc3c2cnn3C)C1 (some centres unmarked)
R. Cn1ncc2c(NC(C)(C)C)nc(NC[C@@H](N)c3ccccc3)nc21
Place the items in sequence of falling IC50. Ranked list of labels, please, in the requested order. R, P, Q

Sourced from patent US20220370453A1
